Value source: paper PMC9482650

target: SCRIB_1, Q14160; test: holdup assay; parameters: key: below the threshold = too weak to quantify, mostly under pKd 3.1 to 4; conditions: plain residues with an end cap or a label only (N-terminal biotin on a linker: ado-ado)
Sequence (Q14160 718-814): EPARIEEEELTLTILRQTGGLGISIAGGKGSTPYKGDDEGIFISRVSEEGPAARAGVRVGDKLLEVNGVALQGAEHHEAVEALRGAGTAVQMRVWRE
measured.metric: pKd

INSERT INTO measurements (binder, measured_metric, reported_measurement) VALUES
  ('EKPIDSETKM [SLC1A3, P43003]', 'pKd', 3.5),
  ('MQILSKPEFI [NPSR1, Q6W5P4]', 'pKd', 'below the threshold'),
  ('IGHEDLETAV [DGKI, O75912]', 'pKd', 4.49),
  ('THHRKIHTRV [ZNF599, Q96NL3]', 'pKd', 3.98),
  ('ATKDKKITTV [EXOC4, Q96A65]', 'pKd', 3.85),
  ('AKADAQESRL [PLCB2, Q00722]', 'pKd', 4.2),
  ('SQDPKKPSRV [CBY2, Q8NA61]', 'pKd', 'below the threshold'),
  ('FVFESRKEIL [TBPL1, P62380]', 'pKd', 'below the threshold'),
  ('PLATCDETSI [SEMA4F, O95754]', 'pKd', 4.92);
